# tested system: recombinant MEN1 protein and fluorescein-labeled MLL4-43 peptide (Homo sapiens, UniProt O00255)
# test: Primary fluorescence polarization assay of MEN1 / MLL4-43 interaction inhibition
# test conditions: MEN1 10 nM, MLL4-43 0.5 nM, 1 hour at room temperature
Reported EC50 values for a set of compounds

Use these answered entries as a reference point.
compound=CCS(=O)(=O)Nc1ccc(CN2CC3(CCN(c4ncnc5ccc(CC(F)(F)F)cc45)CC3)C2)cc1 result="1 to 5 µM"
compound=CCS(=O)(=O)Nc1ccc(CN2CCC3(CC2)CN(c2ncnc4cc(CC(F)(F)F)ccc24)C3)cc1 result="> 5 µM"

# EC50 of CCS(=O)(=O)N[C@H]1CC[C@H](CN2CCC3(CC2)CN(c2ncnc4ccc(CCc5cccnc5)cc24)C3)CC1 = 0.5 to 1 µM

# EC50 of CCS(=O)(=O)Nc1ccc(CN2CCC3(CC2)CN(c2ncnc4ccc(CCc5ccccc5)cc24)C3)cc1 = 0.5 to 1 µM

# EC50 of CCS(=O)(=O)Nc1cccc(CN2CCC3(CC2)CN(c2ncnc4ccccc24)C3)c1 = > 5 µM

# EC50 of CCNS(=O)(=O)c1ccc(CN2CC3(CCN(c4ncnc5ccc(CC(F)(F)F)cc45)CC3)C2)cc1 = 1 to 5 µM

# EC50 of CCS(=O)(=O)N[C@H]1CC[C@H](CN2CCC(Nc3ncnc4ccc(CC(F)(F)F)cc34)C2)CC1 (mixture of isomers) = > 5 µM

###

# test: HEK293 Cellular Growth Inhibition Assay (CellTiter-Glo)
# Format: cell-based
# test conditions: human, HEK293 cells, 7 days of incubation
# Experimental: HEK293 (Institute of Cytology Russian Academy of Science), MV4-11 (ATCC, CRL-9591), MOLM-13 (AcceGen, ABC-TC517S) were seeded at a density of 500 cells per well (HEK293) and 2000 cells per well (MV4-11, MOLM-13) in a 384-well clear bottom plate (Greiner Cat #781090) in 45 μl total volume of DMEM (PanEco, Cat #C420, Russia) or RPMI (PanEco, Cat #C330, Russia) with 10% FBS(HyClone Cat #SV30160.03). HEK293 were allowed to adhere overnight at 37° C., 5% CO2. […]
Reported CC50 at 7 days values for a set of compounds

# CC50 at 7 days of CCS(=O)(=O)Nc1cccc(CN2CC3(CCN(c4ncnc5ccc(CC(F)(F)F)cc45)CC3)C2)c1 = 5 to 15 µM

# CC50 at 7 days of CCS(=O)(=O)N1Cc2ccc(CN3CCC4(CC3)CN(c3ncnc5ccc(CC(F)(F)F)cc35)C4)cc2C1 = 5 to 15 µM

# CC50 at 7 days of CCS(=O)(=O)Nc1ccc(CN2CCC3(CC2)CN(c2ncnc4ccc(CCc5ccccc5)cc24)C3)cc1 = 5 to 15 µM

# CC50 at 7 days of CCS(=O)(=O)Nc1ccc(CN2CCC3(CC2)CN(c2ncnc4ccc(CC(F)(F)F)cc24)C3)cc1OCC(C)N1CCN(S(C)(=O)=O)CC1 (racemic) = 15 to 30 µM

###

# Tested on: MOLM-13
# test: MOLM-13 Cellular Growth Inhibition Assay (CellTiter-Glo)
# Type: cell-based
# test conditions: Homo sapiens, 168 h, MOLM-13 cells, 7 days of incubation
recorded metric: CC50

Use these answered entries as a reference point.
molecule=CCS(=O)(=O)N[C@H]1CC[C@H](CN2CCC3(CC2)CN(c2ncnc4ccc(CCc5cccnc5)cc24)C3)CC1 recorded_metric=CC50 result="5 to 10 µM"
molecule=CCS(=O)(=O)Nc1cccc(CN2CC3(CCN(c4ncnc5ccc(CC(F)(F)F)cc45)CC3)C2)c1 recorded_metric=CC50 result="5 to 10 µM"

# CC50 of FC(F)(F)Cc1ccc2ncnc(N3CC4(CCN(Cc5cccc6[nH]ccc56)CC4)C3)c2c1 = 5 to 10 µM

# CC50 of CCS(=O)(=O)N[C@H]1CC[C@H](CN2CCC3(CC2)CN(c2ncnc4ccc(CCc5cccc(F)c5)cc24)C3)CC1 = 1 to 5 µM

# CC50 of Nc1ccc(CN2CCC3(CC2)CN(c2ncnc4ccc(CC(F)(F)F)cc24)C3)cc1C(=O)NCCN1CCOCC1 = 10 to 20 µM

# CC50 of CCS(=O)(=O)Nc1ccc(CN2CCC3(CC2)CN(c2ncnc4ccc(CC(F)(F)F)cc24)C3)cc1OCC(C)N1CCN(S(C)(=O)=O)CC1 (racemic) = 5 to 10 µM

# CC50 of CCS(=O)(=O)Nc1ccc(CN2CCC3(CC2)CN(c2ncnc4ccc(CCc5ccncc5)cc24)C3)cc1 = 10 to 20 µM

###

# Tested on: MOLM-13
# test: MOLM-13 Cellular Growth Inhibition Assay (CellTiter-Glo)
# Assay type: cell-based
# test conditions: Homo sapiens, 168 h, MOLM-13 cells, 7 days of incubation
recorded metric: CC50

# CC50 of CCS(=O)(=O)N1Cc2ccc(CN3CCC4(CC3)CN(c3ncnc5ccc(CC(F)(F)F)cc35)C4)cc2C1 = 5 to 10 µM

###

Reported pEC50 values for a set of compounds
# tested system: recombinant MEN1 protein and fluorescein-labeled MLL4-43 peptide (Homo sapiens)
# Sequence (O00255 1-610): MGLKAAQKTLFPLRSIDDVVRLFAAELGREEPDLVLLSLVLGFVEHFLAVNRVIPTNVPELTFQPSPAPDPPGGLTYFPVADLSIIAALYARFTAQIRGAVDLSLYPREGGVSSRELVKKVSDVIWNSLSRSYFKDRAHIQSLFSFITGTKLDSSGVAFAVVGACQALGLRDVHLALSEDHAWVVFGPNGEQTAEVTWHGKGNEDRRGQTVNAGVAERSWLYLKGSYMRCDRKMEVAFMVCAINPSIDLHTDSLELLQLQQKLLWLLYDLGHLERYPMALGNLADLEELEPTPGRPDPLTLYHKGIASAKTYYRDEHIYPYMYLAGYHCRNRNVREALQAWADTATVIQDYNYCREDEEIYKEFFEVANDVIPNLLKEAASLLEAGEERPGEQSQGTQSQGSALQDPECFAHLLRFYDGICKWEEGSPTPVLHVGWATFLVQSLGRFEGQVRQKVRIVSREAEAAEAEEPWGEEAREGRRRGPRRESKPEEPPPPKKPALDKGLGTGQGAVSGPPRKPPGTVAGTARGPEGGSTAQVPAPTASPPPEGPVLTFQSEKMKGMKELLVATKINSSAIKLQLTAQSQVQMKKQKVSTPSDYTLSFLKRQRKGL
# test: Primary fluorescence polarization assay of MEN1 / MLL4-43 interaction inhibition
# test conditions: MEN1 10 nM, MLL4-43 0.5 nM, 1 hour at room temperature
pEC50: −log10 of the molar value.

smiles_code=CCS(=O)(=O)Nc1cccc(CN2CC3(CCN(c4ncnc5ccc(CC(F)(F)F)cc45)CC3)C2)c1 result="6.00 to 6.30"

# pEC50 of O=C1COc2cc(CN3CCC4(CC3)CN(c3ncnc5ccc(CC(F)(F)F)cc35)C4)ccc2N1 = 6.30 to 7.12

# pEC50 of CCS(=O)(=O)N1CCc2ccc(CN3CCC4(CC3)CN(c3ncnc5ccc(CC(F)(F)F)cc35)C4)cc2C1 = 5.30 to 6.00

# pEC50 of CCS(=O)(=O)NC12CC(CN3CCC4(CC3)CN(c3ncnc5ccc(CC(F)(F)F)cc35)C4)(C1)C2 = 5.30 to 6.00

# pEC50 of CCS(=O)(=O)Nc1ccc(CN2CCC3(CC2)CN(c2ncnc4ccc(CC(F)(F)F)cc24)C3)cc1 = ≥ 7.12

# pEC50 of CCS(=O)(=O)Nc1ccc(CN2CCC3(CC2)CN(c2ncnc4ncccc24)C3)cc1 = < 5.30

# pEC50 of CCS(=O)(=O)Nc1ccc(CN2CCC3(CC2)CCN(c2ncnc4cc(CC(F)(F)F)ccc24)CC3)cc1 = < 5.30

# pEC50 of CCS(=O)(=O)N[C@H]1CC[C@H](CN2CCC3(CC2)CN(c2ncnc4ncc(CC(F)(F)F)cc24)C3)CC1 = 6.30 to 7.12

# pEC50 of Nc1ccc(CN2CCC3(CC2)CN(c2ncnc4ccc(CC(F)(F)F)cc24)C3)cc1C(=O)NCCN1CCOCC1 = 5.30 to 6.00

###

# test: HEK293 Cellular Growth Inhibition Assay (CellTiter-Glo)
# Type: cell-based
# test conditions: human, HEK293 cells, 7 days of incubation
recorded metric: CC50 at 7 days

compound=CCS(=O)(=O)N[C@H]1CC[C@H](CN2CCC3(CC2)CN(c2ncnc4ccc(CCc5ccccc5)cc24)C3)CC1 recorded_metric="CC50 at 7 days" result="5 to 15 µM"
compound="CCS(=O)(=O)N[C@H]1CC[C@H](CN2CCC(Nc3ncnc4ccc(CC(F)(F)F)cc34)C2)CC1 (mixture of isomers)" recorded_metric="CC50 at 7 days" result="> 50 µM"
compound=CCNS(=O)(=O)c1ccc(CN2CC3(CCN(c4ncnc5ccc(CC(F)(F)F)cc45)CC3)C2)cc1 recorded_metric="CC50 at 7 days" result="15 to 30 µM"

# CC50 at 7 days of CCS(=O)(=O)N[C@H]1CC[C@H](CN2CCC3(CC2)CCN(c2ncnc4ccc(CC(F)(F)F)cc24)CC3)CC1 = 5 to 15 µM

# CC50 at 7 days of CCS(=O)(=O)N[C@H]1CC[C@H](CN2CCC3(CC2)CN(c2ncnc4ccc(CC(C)c5ccccc5)cc24)C3)CC1 (mixture of isomers) = ≤ 5 µM

# CC50 at 7 days of CCS(=O)(=O)Nc1ccc(CN2CCC3(CC2)CCN(c2ncnc4cc(CC(F)(F)F)ccc24)CC3)cc1 = 15 to 30 µM

# CC50 at 7 days of CCS(=O)(=O)N[C@H]1CC[C@H](CNc2ccc(CN3CCC4(CC3)CN(c3ncnc5ccc(CC(F)(F)F)cc35)C4)cc2)CC1 = ≤ 5 µM

All values here come from patent US20250066358A1.
